# Exfoliating activity, Result values compiled below
Tested on: human skin explants
Assay: Exfoliating action of plant extracts on human skin explants ex vivo (morphology of the stratum corneum)
Format: cell-based
Details: 1% (C1), day 4, compared to control group TJ
Readout Name: Exfoliating activity, Result

[[record]]
compound = "O=C(O)CO"
obs_value = 4

[[record]]
compound = "O=C(O)c1ccccc1O [Product P1, Natural Salicylic Acid]"
obs_value = 4

[[record]]
compound = "O=C(O)C(Cl)(Cl)Cl"
obs_value = 6

[[record]]
compound = "CC(O)C(=O)O (stereo not shown)"
obs_value = 4


Reference source: patent US11033597B2
